# Target under test: DLG2_2, Q15700
# Sequence (Q15700 189-283): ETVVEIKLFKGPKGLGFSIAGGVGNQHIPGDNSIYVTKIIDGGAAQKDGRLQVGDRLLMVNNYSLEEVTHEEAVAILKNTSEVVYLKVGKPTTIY
# Assay explanation: holdup assay
# Parameters: key: below the threshold = too weak to quantify, mostly under pKd 3.1 to 4
# Condition set: plain residues with an end cap or a label only (N-terminal biotin on a linker: ado-ado)
Quantity: pKd

In the examples that follow, each entry is paired with its recorded pKd.
RDPPAEWTRV [PTPN18, Q99952]	4.01
PSHPRLQTHV [KIRREL2, Q6UWL6]	4.28
VLYPREGTEV [FOXI1, Q12951]	4.45
RSSGGDDFWF [KCNV1, Q6PIU1]	below the threshold
NIAESLESLV [PTPRZ1, P23471]	4.72

stdin: Please give the documented pKd of LPAVCYDIDI [PTTG2, Q9NZH5]
stdout: below the threshold

stdin: Please give the documented pKd of QRPYRRGSEI [KCNJ18, B7U540]
stdout: below the threshold

These entries and their values trace back to paper PMC9482650.
